# ASSAYED_TARGET: full length human TPH1 (Homo sapiens, UniProt P17752)
# Construct: To generate the enzyme, full length human TPH1 is cloned into the plasmid pET20b(+); made in house; host or cells: E. coli
# Sequence (P17752 1-444): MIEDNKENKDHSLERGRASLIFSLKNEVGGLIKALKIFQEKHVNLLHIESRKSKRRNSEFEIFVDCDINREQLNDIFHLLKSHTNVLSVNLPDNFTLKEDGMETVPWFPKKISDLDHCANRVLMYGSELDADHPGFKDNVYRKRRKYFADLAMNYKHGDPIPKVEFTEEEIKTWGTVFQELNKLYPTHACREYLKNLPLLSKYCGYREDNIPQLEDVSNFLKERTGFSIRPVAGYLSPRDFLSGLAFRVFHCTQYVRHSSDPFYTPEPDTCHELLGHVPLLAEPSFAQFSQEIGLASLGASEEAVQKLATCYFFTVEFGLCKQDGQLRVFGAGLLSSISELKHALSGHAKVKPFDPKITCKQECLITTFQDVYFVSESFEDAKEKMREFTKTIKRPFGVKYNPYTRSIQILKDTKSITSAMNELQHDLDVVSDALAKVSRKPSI
# MEASUREMENT_PROTOCOL: Biochemical in vitro assay using fluorescence readout (TPH1 enzyme activity)
# EXPERIMENTAL_CONTEXT: Table 1, mean where determined several times
Provide the reported IC50 of each item.
Report the figure in nM without appending any unit label.

Measured IC50 of N#Cc1ccc(C2c3c(nc4n3CCCC4)CCN2C(=O)COc2ccc(C(=O)NC3CC3)nc2Cl)c(F)c1 (stereo not drawn) : 28

Measured IC50 of CCc1cc(F)ccc1OCC(=O)N1CCc2nc3n(c2C1c1ncc(C2CC2)cc1F)CCNC3 (stereo not drawn) : 329

Measured IC50 of CC(=O)N1CCn2c(nc3c2C(c2ccc(C4CC4)cc2F)N(C(=O)COc2ccc(C(=O)N(C)C)nc2Cl)CC3)C1 (stereo not drawn) : 4

Measured IC50 of CS(=O)(=O)Nc1ccc(OCC(=O)N2CCc3nc4n(c3C2c2ccc(Cl)cc2F)CCCCC4)c(Cl)n1 (stereo not drawn) : 26

Measured IC50 of Cc1ccc(C2c3c(nc4n3CCS4)CCN2C(=O)COc2ccc(C(=O)NC3CC3)nc2Cl)c(F)c1F (stereo not drawn) : 15

Measured IC50 of Cc1ccc(C2c3c(nc4n3CCCC4)CCN2C(=O)COc2ccc(-c3ncco3)nc2Cl)c(F)c1 (stereo not drawn) : 11

Measured IC50 of Cc1nc(C)c(C2c3c(nc4n3CCCC4)CCN2C(=O)COc2ccc(C(=O)N(C)C3CC3)nc2Cl)s1 (stereo not drawn) : 82

Measured IC50 of CC(C)(O)c1ccc(C2c3c(nc4n3CCCC4)CCN2C(=O)COc2ccc(C(=O)NC3CC3)nc2Cl)c(F)c1 (stereo not drawn) : 68

Measured IC50 of Cc1nc(C(C)C)sc1C1c2c(nc3n2CCCC3)CCN1C(=O)COc1ccc(NS(C)(=O)=O)nc1Cl (stereo not drawn) : 819
